- studySystem: EGF receptor tyrosine kinase (Homo sapiens, UniProt P00533)
- Construct: Receptor tyrosine kinase was obtained in partially purified form from A-431 cells; endogenous in cells
- Sequence (P00533 25-1210): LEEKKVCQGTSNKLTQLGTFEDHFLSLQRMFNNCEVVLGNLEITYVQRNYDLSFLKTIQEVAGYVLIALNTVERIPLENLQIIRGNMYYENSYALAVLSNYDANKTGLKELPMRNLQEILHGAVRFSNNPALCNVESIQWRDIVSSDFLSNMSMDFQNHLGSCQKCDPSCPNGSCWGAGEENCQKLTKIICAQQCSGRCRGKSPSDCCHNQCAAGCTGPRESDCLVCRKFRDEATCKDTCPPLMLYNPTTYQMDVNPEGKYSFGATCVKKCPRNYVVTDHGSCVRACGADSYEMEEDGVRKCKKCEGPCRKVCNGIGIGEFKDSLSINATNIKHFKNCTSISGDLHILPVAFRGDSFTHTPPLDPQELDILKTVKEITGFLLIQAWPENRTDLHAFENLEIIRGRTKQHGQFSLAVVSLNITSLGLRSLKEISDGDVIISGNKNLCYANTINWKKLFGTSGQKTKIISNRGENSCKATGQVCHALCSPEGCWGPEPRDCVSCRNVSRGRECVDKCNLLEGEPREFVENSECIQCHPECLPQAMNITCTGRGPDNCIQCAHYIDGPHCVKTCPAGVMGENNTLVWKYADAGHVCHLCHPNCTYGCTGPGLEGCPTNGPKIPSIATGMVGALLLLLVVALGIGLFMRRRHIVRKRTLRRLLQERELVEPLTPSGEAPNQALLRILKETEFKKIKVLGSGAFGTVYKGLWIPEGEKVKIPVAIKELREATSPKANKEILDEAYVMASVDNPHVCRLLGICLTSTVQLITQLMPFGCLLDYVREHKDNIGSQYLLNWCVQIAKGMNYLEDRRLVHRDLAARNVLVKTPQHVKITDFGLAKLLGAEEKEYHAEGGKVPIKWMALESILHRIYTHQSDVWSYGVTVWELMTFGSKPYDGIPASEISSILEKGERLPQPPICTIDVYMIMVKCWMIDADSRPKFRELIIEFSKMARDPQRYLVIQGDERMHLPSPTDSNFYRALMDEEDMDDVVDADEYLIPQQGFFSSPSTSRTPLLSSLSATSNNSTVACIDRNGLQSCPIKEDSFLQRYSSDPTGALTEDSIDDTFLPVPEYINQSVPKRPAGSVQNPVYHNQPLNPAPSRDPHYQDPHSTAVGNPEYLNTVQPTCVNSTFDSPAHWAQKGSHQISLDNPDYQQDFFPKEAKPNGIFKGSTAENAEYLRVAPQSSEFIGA
- protocolSummary: Test (a): in vitro inhibition of the enzyme EGF receptor tyrosine kinase (partially purified from A-431 cells)
- assayConditions: example values stated as approximate
measure: pIC50
Numbers only, as −log10 of the molar value.

Okay, here is my list. What is pIC50 for each of these?
1. COc1cc2ncnc(Nc3ccc(F)c(Cl)c3)c2cc1OCC1COCO1 (centres unmarked)
2. COc1cc2ncnc(Nc3ccc(F)c(Cl)c3)c2cc1OCCC1OCCO1
3. COc1cc2ncnc(Nc3ccc(F)c(Cl)c3)c2cc1OCCCC1OCCO1

Out:
1: 7.82; 2: 8.00; 3: 7.40

Okay, here is my list. What is pIC50 for each of these?
1. COc1cc2ncnc(Nc3ccc(F)c(Cl)c3)c2cc1OCC1OCCO1
2. COc1cc2ncnc(Nc3ccc(F)c(Cl)c3)c2cc1OCCC1OCCCO1

Out:
8.00
8.30
